method summary: gradient 5% acetonitrile 3 min, to 50% in 2 min, to 85% in 15 min, held 3 min, 100 µL/min
measurement conditions: column: Zorbax Extend-C18 2.1 x 50 mm; eluents: water / acetonitrile, 0.1% formic acid
property: RP-LC retention time (s)

molecule	unit of measure	RP-LC retention time
COCCCNC(=O)c1ccc(-c2ccc(Oc3ccccc3)nn2)cc1	s	757
CCOc1ccccc1NC(=O)N1C[C@@H](F)C[C@H]1C(=O)N1CCCCC1	s	772
Cc1ccc(NC(=O)Cn2cnc(C)c(C)c2=O)cc1	s	675
Cc1ccc(C2=NC3(CCN(C(=O)c4ccc5ccccc5n4)CC3)ON2)cc1	s	809
COc1ccc(CNC(=O)C(C)n2ccc3cc(S(=O)(=O)N4CCCCC4)ccc32)c(OC)c1 (centres undefined)	s	959

P: CCc1nnc2c(=O)n(CC(=O)NCc3ccc(F)cc3)c3cccnc3n12
Q: O=C1N(c2cccc(F)c2)c2ncccc2S(=O)(=O)N1Cc1ccccc1F
Would you kindly point out which of P and Q has the smaller RP-LC retention time figure? # reply format: chosen label
P

1: Cc1ccc(C2=NC3(CCN(C(=O)c4ccc5c(c4)OCO5)CC3)NC2=O)cc1C
2: CCc1nc2cc(-c3noc(-c4ccc(Br)o4)n3)ccc2o1
So which one has the bigger RP-LC retention time here, 1 or 2 ? Please respond with the label that marks your chosen entry.
2
(2: 1190 s, 1: 831 s)

---

method summary: gradient 5% acetonitrile 3 min, to 50% in 2 min, to 85% in 15 min, held 3 min, 100 µL/min
measurement conditions: column: Zorbax Extend-C18 2.1 x 50 mm; eluents: water / acetonitrile, 0.1% formic acid
property: RP-LC retention time (s)

compound	RP-LC retention time / s
CCCOc1ccc(C2NC(=O)NC(C)=C2C(=O)OC2CCCC2)cc1OC (centres undefined)	857

A: O=C(C1CC1)N1CCC(F)(C(=O)NCC2CC2)CC1
B: Cc1ccc2ncn(C3CCN(S(=O)(=O)c4ccc(C(C)C)cc4)CC3)c(=O)c2c1
Returns the identifier with the smallest measured RP-LC retention time among A and B . Reply briefly: the label of your chosen item.
A
(A: 631 s, B: 1050 s)

1: CCN1CCN(C(=O)C2CCc3sc(C(=O)N4CCCCC4)cc3C2)CC1 (centres undefined)
2: Cc1noc(C)c1-c1ccc(S(=O)(=O)Nc2ccc(C(F)(F)F)cc2)cc1
Of the pair 1 and 2 , name the member with the lesser recorded RP-LC retention time. Answer = label.
1
(1: 613 s, 2: 1020 s)

1: O=C(Nc1cccc(Nc2ncc(Br)c(NCCc3cnc[nH]3)n2)c1)N1CCCC1
2: COc1ccc(-c2noc(C3CCCN3C(=O)c3sccc3C)n2)cc1 (centres undefined)
Please indicate which entry, 1 or 2 , has the lower recorded RP-LC retention time value. # reply format: chosen label
1
(1: 592 s, 2: 984 s)

A: Cc1nc(-c2csc(S(=O)(=O)N3CCC(C(=O)N4CCCC4)CC3)c2)no1
B: COCCSc1nc(-c2cccs2)cc(C(F)(F)F)c1C#N
Lab log: flag the item ( A or B ) with the smaller RP-LC retention time figure. Choose, then provide that item's label.
A
(A: 760 s, B: 1120 s)

P: Cc1cnc(C(=O)N2CCC(N3C(=O)C4(CCCC4)C3c3scnc3C)CC2)cn1 (centres undefined)
Q: CCOc1ccc(CNC(=O)c2cc(S(=O)(=O)N3CCCCC3)c(C)n2C)cc1
Two entries are listed, P and Q . Which one carries the higher RP-LC retention time? Your answer should be the label attached to the chosen record.
Q
(Q: 1020 s, P: 681 s)

a: Cc1nc(NCCNC(=O)c2cccc(C(F)(F)F)c2)cc(N2CCOCC2)n1
b: Clc1c(Cl)c(Cl)c2n[nH]nc2c1Cl
Hi team, can someone confirm which has the larger RP-LC retention time: a or b ? Thanks. Lab note: record the label of whichever item you select.
b

A: Cc1ccc(-c2nc3cnccn3c2NCCC(=O)NCc2ccco2)cc1
B: Cc1ccc(Cn2nc3ccc(S(=O)(=O)N4CCCCC4)cn3c2=O)cc1C
Between these two entries, A and B , state which has the higher RP-LC retention time. Provide the label of your selected option as the answer.
B
(B: 1020 s, A: 684 s)

A: Cc1nnc(-c2ccc3ccn(CC(=O)N4CCN(c5ccccn5)CC4)c3c2)o1
B: CC(=O)Cc1nsc(NC(=O)c2ccc(-c3cccc(Cl)c3)o2)n1
Which value of RP-LC retention time is numerically greater: that of A or that of B ? # answer = label of selected item
B
(B: 866 s, A: 598 s)

---

method summary: gradient 5% acetonitrile 3 min, to 50% in 2 min, to 85% in 15 min, held 3 min, 100 µL/min
measurement conditions: column: Zorbax Extend-C18 2.1 x 50 mm; eluents: water / acetonitrile, 0.1% formic acid
property: RP-LC retention time (s)

Guide cases for RP-LC retention time, answers given:
molecule	val
CCc1cc(N2CCN(C(=O)COc3ccc(F)cc3)CC2)nc2nncn12	566
CCCc1noc(-c2cccnc2N2CCCN(Cc3ccccc3F)CC2)n1	701
Cc1cc(N2CCN(C)CC2)nc2ccc(NC(=O)C3CCC(C(C)(C)C)CC3)cc12 (stereo not given)	675

a: CCC(CC)C(=O)N1CCc2[nH]nc(C(=O)NCCCc3ccccc3)c2C1
b: Cc1cccc(-c2noc(C3CCCN3C(=O)c3cccc(Cl)c3)n2)c1 (stereo not given)
Kindly identify which of a and b has the larger recorded RP-LC retention time value. Identify your pick by its label.
b

---

method summary: gradient 5% acetonitrile 3 min, to 50% in 2 min, to 85% in 15 min, held 3 min, 100 µL/min
measurement conditions: column: Zorbax Extend-C18 2.1 x 50 mm; eluents: water / acetonitrile, 0.1% formic acid
property: RP-LC retention time (s)

molecule	val
COC(=O)C1=CN(c2cccc(C)c2)c2ccccc2S1(=O)=O	849
COC(=O)c1nnn(-c2ccc(C(C)C)cc2)c1C(=O)OC	996
CC1=C(c2ccc(F)cc2)S(=O)(=O)N=C1N1CCCN(C(=O)NCCC(C)C)CC1	837

P: CCOC(=O)C1CCN(c2ncc(C(=O)Nc3ccccc3)c(N)n2)CC1
Q: CN(CC1CCCO1)c1nc(-c2ccc([N+](=O)[O-])cc2)cs1 (stereo not given)
// returns P or Q , whichever has the lower RP-LC retention time Reply briefly: the label of your chosen item.
P

---

method summary: gradient 5% acetonitrile 3 min, to 50% in 2 min, to 85% in 15 min, held 3 min, 100 µL/min
measurement conditions: column: Zorbax Extend-C18 2.1 x 50 mm; eluents: water / acetonitrile, 0.1% formic acid
property: RP-LC retention time (s)

Here is how some molecules turned out for RP-LC retention time.
molecule	unit of measure	val
Cc1ccc(-n2ccc(=O)c(-c3nc(-c4cccc(C)c4)no3)n2)cc1	s	974
CCCCc1ccc(NC(=O)N2CCc3nc[nH]c3C2)cc1	s	675
COc1ccc(-c2cc3nn(CC(=O)Nc4ccccc4F)c(=O)n3c(C)n2)cc1	s	901

I: CC1=NS(=O)(=O)N(Cc2ccccc2)C=C1C(=O)OCc1ccc(F)cc1
II: COc1ccc(CN2C(=O)COC[C@H]2C(=O)NC2CC2)c(OC)c1
Of the two listed items, I and II , which carries the larger RP-LC retention time figure? Your answer should be the label attached to the chosen record.
I

---

method summary: gradient 5% acetonitrile 3 min, to 50% in 2 min, to 85% in 15 min, held 3 min, 100 µL/min
measurement conditions: column: Zorbax Extend-C18 2.1 x 50 mm; eluents: water / acetonitrile, 0.1% formic acid
property: RP-LC retention time (s)

Known results for compounds:
compound	property	unit of measure	val
Cc1cc2nn(CC(=O)Nc3ccc(Cl)cc3)c(=O)n2c(N2CCCC2)n1	RP-LC retention time	s	802
CC(C)CCNC(=O)C1Cn2cccc2C(=O)N1CC(C)C (stereo not given)	RP-LC retention time	s	799
COc1ccc(Nc2nc(-c3nnn(-c4cc(Cl)c(OC)cc4OC)c3C)ns2)cc1	RP-LC retention time	s	1020

1: Cn1c(=O)n([C@H]2CCN(S(=O)(=O)c3ccc(F)cc3)C2)c2ncccc21
2: CC1CCCN(c2nccnc2SCC(=O)Nc2ccc(F)cc2Cl)C1 (stereo not given)
Looking only at measured RP-LC retention time, which entry is lower, 1 or 2 ? State your choice using its label.
1
(1: 805 s, 2: 1300 s)

---

method summary: gradient 5% acetonitrile 3 min, to 50% in 2 min, to 85% in 15 min, held 3 min, 100 µL/min
measurement conditions: column: Zorbax Extend-C18 2.1 x 50 mm; eluents: water / acetonitrile, 0.1% formic acid
property: RP-LC retention time (s)

compound	RP-LC retention time / s
Cc1ccc(NS(=O)(=O)c2ccc3c4c(cccc24)C(=O)N3)c(C)c1	751
O=C(Nc1ccc2nc3n(c(=O)c2c1)CCCCC3)C(=O)N1CCc2ccccc21	889
Cc1cnc(C(=O)N2CCC(c3noc(-c4cnccn4)n3)C2)cn1 (stereo not given)	630
Cc1cccc(NC(=O)CC2COc3ccccc3NC2=O)c1C (stereo not given)	736
O=C(NCc1ccco1)Nc1cccn2c(C3CCC3)nnc12	694
